molecular target: Trypanosoma brucei REL1 (Trypanosoma brucei brucei); construct: made in house; host or cells: Escherichia coli BL21 (DE3), polycistronic pET-21d construct; experiment: biochemical; type: biochemical; conditions: single-shot HTS, 10 μM final compound concentration, 10 μM ATP; as suggested by HTS
Sequence (P86926 51-469): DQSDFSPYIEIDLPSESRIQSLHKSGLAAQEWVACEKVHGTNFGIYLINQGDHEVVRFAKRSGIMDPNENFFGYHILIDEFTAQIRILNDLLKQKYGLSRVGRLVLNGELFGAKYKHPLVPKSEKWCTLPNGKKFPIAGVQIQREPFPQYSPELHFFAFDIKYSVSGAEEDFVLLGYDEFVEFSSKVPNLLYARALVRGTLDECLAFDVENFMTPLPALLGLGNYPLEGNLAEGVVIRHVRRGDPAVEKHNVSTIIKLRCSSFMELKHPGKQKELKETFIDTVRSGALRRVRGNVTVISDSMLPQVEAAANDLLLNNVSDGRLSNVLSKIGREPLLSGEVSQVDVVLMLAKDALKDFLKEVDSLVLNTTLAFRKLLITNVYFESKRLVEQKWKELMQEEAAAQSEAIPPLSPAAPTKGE
Given measured Inhibition at 10 μM, output t if it is greater than or equal to 30% and f if not.

compound	class_label
N.N.[Cl][Pt][Cl] [cis-Diammineplatinum(II) dichloride]	f
OC[C@H]1O[C@H]([S-])[C@H](O)[C@@H](O)[C@@H]1O.[Au+] [Aurothioglucose hydrate]	t
NC(=O)c1cc[n+](CC2=C(C(=O)[O-])N3C(=O)[C@@H](NC(=O)[C@@H](c4ccccc4)S(=O)(=O)[O-])[C@H]3SC2)cc1.[Na+] [Cefsulodin sodium salt hydrate]	t
CC(=O)OC[C@H]1O[C@@H]([S-])[C@H](OC(C)=O)[C@@H](OC(C)=O)[C@@H]1OC(C)=O.CCP(CC)CC.[Au+]	f
O=C(O)/C(=C/c1c(C(=O)O)[nH]c2cc(Cl)cc(Cl)c12)c1ccccc1	f
C#CCN[C@H](C)Cc1ccccc1.Cl [R-(–)-Desmethyldeprenyl hydrochloride]	t
CN(N=O)c1ccc(O)c(O)c1	t
CC(C)N(CCC(=O)c1ccc2ccccc2c1)Cc1ccccc1.Cl [ZM 39923 hydrochloride]	f
CC(=O)OCC1=C(C(=O)[O-])N2C(=O)[C@@H](NC(=O)CCC[C@@H](N)C(=O)[O-])[C@H]2SC1.[Zn+2] [Cephalosporin C zinc salt]	f
O=C(Nc1cccc(C(=O)Nc2ccc(S(=O)(=O)[O-])c3cc(S(=O)(=O)[O-])cc(S(=O)(=O)[O-])c23)c1)Nc1cccc(C(=O)Nc2ccc(S(=O)(=O)[O-])c3cc(S(=O)(=O)[O-])cc(S(=O)(=O)[O-])c23)c1.[Na+].[Na+].[Na+].[Na+].[Na+].[Na+] [NF 023 hydrate]	t
O.O=c1c(O)c(-c2ccc(O)cc2O)oc2cc(O)cc(O)c12 [Morin hydrate]	f
N#C/C(=C\c1ccc(O)c(O)c1)C(=O)NCCCNC(=O)/C(C#N)=C/c1ccc(O)c(O)c1	t
O=[N+]([O-])/C=C/c1ccc2c(c1)OCO2	f
